Consider the following Ki values measured on hCA IX (Homo sapiens, UniProt Q16790).

Cc1ccc(C(C)C)c(OCCCCOc2ccc3ccc(=O)oc3c2)c1 | 0.0824 µM

response.value for Cc1ccc(C(C)C)cc1OCc1cn(CCCCCCCCCOc2ccc3ccc(=O)oc3c2)nn1 (field: Ki) = 0.0897 µM

So, CC1CCC(C(C)C)C(OCc2cn(CCCCCCCCCCOc3ccc4ccc(=O)oc4c3)nn2)C1 (centres unmarked) ? Its Ki was 0.0019 µM

The recorded Ki for entry Cc1ccc(C(C)C)c(OCc2cn(CCCCCCCCCOc3ccc4ccc(=O)oc4c3)nn2)c1 equals 0.213 µM

// Cc1ccc(C(C)C)c(OCc2cn(CCCCCCCCCCOc3ccc4ccc(=O)oc4c3)nn2)c1 : Ki value = 0.268 µM

Entry under test: Cc1ccc(C(C)C)cc1OCc1cn(CCCCCCCCCCOc2ccc3ccc(=O)oc3c2)nn1 . Its Ki was 0.258 µM

For CC1CCC(C(C)C)C(OCc2cn(CCCCCCCCCOc3ccc4ccc(=O)oc4c3)nn2)C1 (centres unmarked) the molecule record lists Ki as 0.204 µM
